Molecular target: IL16_1, Q14005
Sequence (Q14005 210-306): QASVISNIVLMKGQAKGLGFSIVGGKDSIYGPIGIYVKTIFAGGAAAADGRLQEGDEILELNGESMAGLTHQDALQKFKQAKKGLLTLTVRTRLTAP
Assay: holdup assay
Design: key: below the threshold = too weak to quantify, mostly under pKd 3.1 to 4
Conditions: plain residues with an end cap or a label only (N-terminal biotin on a linker: ttds)
READOUT NAME: pKd

1. PPRQRSETQV [HPV82-E6, Q9IR59] : below the threshold
2. SSIDLWETAL [SLC15A5, A6NIM6] : 4.29
3. GARVSKETPL [MAPK12, P53778] : below the threshold
4. SHSSKGETAV [FZD7, O75084] : 3.66
5. SGGKRKETLV [NET1, Q7Z628] : below the threshold
6. PSRDRKETSI [RALBP1, Q15311] : below the threshold

Pending binder:
[in] If you can, please state the reported pKd value of PFRSRSPSEV [GPR6, P46095] .
[out] below the threshold
